target: FGFR3 (UniProt P22607); test: phosphorylation enrichment, bacterial display (enrichment ratio); higher = better substrate or ligand; peptides without Tyr show the background;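 note: 11-residue human phosphosite peptides and single-mutation variants displayed on the E. coli surface, counted by deep sequencing, each peptide's frequency after selection divided by its frequency in the unselected input library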;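 note: frequency after pTyr selection over input frequency; kinase dosed for 20-30% of maximal phosphorylation in three min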
Sequence (P22607 whole entry, looked up): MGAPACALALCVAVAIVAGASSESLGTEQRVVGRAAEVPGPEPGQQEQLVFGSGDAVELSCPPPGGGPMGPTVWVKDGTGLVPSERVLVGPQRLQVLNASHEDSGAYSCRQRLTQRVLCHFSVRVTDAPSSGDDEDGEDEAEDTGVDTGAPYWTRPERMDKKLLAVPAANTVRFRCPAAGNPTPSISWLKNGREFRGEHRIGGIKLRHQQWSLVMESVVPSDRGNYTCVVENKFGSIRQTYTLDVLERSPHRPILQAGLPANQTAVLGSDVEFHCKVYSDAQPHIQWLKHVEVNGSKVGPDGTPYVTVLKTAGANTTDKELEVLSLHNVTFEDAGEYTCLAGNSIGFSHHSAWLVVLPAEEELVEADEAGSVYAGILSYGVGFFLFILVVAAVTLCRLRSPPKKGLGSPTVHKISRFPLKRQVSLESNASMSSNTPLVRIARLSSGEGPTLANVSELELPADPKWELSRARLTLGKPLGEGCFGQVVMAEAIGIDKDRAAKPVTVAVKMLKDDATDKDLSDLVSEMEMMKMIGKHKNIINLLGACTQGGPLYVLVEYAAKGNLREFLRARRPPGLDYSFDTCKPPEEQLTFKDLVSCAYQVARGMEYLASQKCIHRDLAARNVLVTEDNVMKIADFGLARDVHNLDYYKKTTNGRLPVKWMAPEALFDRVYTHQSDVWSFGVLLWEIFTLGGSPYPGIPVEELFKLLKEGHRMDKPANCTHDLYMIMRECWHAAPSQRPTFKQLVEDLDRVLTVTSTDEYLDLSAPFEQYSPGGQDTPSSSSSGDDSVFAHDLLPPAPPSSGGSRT
readout: phosphorylation enrichment

Check out these entries, answers already filled in.
[[record]]
seq_text = "CVRTIYTIDGS [DCLK2_Y124_G119C]"
result_value = 1

[[record]]
seq_text = "EFGFRYELVQY [UGGT2_Y1289_Y1285F]"
result_value = 0.617


I am curious: what phosphorylation enrichment value has been reported for QLHREYCLSPR [HJURP_Y445] ?
0.733

Given GGQVFHNSEYG [FLT4_Y1333_Y1333H] , state its recorded phosphorylation enrichment.
0.535

Report phosphorylation enrichment for NHQYDYTFDWT [CSNK1A1_Y294] please.
2.67

Bench note: what phosphorylation enrichment did GREAEYSEKHG [EPHB4_Y574_D576E] show?
0.544

# input sequence: PRPAGYPSTVS [CACNA1C_Y1832] ; wanted: its phosphorylation enrichment
0.446

Please look up its phosphorylation enrichment: KACKHYLTTRT [ZBTB5_Y118]
0.64

Need phosphorylation enrichment, item ISTAGYSFPEL [EDAR_Y406_I408F]
0.532

What phosphorylation enrichment value was documented for this sequence, LLIVEYAKYGS [RET_Y806] ?
0.942

----------
phosphorylation enrichment values by entry
biological target: EPHB1 (UniProt P54762); assay: phosphorylation enrichment, bacterial display (enrichment ratio); higher = better substrate or ligand; peptides without Tyr show the background
Sequence (P54762 whole entry, looked up): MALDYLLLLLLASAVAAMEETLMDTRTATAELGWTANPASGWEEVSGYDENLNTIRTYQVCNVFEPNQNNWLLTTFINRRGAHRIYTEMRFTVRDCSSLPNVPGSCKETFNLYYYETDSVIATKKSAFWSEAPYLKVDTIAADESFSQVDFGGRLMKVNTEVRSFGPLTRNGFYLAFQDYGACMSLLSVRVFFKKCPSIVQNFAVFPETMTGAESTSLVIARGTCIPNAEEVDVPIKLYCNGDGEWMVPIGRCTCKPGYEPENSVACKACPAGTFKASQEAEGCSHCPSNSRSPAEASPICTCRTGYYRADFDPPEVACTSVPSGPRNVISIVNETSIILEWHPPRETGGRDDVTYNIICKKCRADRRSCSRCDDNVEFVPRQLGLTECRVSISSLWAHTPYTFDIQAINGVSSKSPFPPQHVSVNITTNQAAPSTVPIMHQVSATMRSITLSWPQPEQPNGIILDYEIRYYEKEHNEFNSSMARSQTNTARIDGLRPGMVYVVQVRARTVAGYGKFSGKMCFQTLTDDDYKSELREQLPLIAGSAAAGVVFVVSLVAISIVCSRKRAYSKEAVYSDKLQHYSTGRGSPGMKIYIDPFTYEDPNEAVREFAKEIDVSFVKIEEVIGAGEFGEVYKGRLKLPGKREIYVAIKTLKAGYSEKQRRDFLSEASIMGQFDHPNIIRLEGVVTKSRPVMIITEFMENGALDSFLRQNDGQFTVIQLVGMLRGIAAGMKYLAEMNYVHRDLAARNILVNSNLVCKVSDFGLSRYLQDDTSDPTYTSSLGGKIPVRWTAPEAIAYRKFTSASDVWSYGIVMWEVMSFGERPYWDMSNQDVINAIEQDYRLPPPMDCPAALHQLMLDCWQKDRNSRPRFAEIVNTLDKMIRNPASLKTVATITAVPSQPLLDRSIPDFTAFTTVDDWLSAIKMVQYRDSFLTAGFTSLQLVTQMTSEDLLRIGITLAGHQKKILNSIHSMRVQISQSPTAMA
Form: value (number only, do not type unit).

Example entries begin here.
[[record]]
seq_text = "MPQNEYIELHR [NSA2_Y6]"
assay_system = "EPHB1 (UniProt P54762)"
readout = "phosphorylation enrichment"
result_value = 0.696

[[record]]
seq_text = "WDLSEYSFKDP [ITGA3_Y237_YF]"
assay_system = "EPHB1 (UniProt P54762)"
readout = "phosphorylation enrichment"
result_value = 0.682

[[record]]
seq_text = "AFSLKYEQQTQ [SYTL4_Y366]"
assay_system = "EPHB1 (UniProt P54762)"
readout = "phosphorylation enrichment"
result_value = 0.694

[[record]]
seq_text = "PLRAYYLIARV [HLCS_Y635_D634Y]"
assay_system = "EPHB1 (UniProt P54762)"
readout = "phosphorylation enrichment"
result_value = 0.543

[[record]]
seq_text = "NSVLVYRNGDP [DCDC2_Y22_K17N]"
assay_system = "EPHB1 (UniProt P54762)"
readout = "phosphorylation enrichment"
result_value = 0.532

[[record]]
seq_text = "HNMPIYEGFAL [ACTA1_Y168_V165M_YF]"
assay_system = "EPHB1 (UniProt P54762)"
readout = "phosphorylation enrichment"
result_value = 24.3

[[record]]
seq_text = "ELELLYLDRNS [NYX_Y284]"
assay_system = "EPHB1 (UniProt P54762)"
readout = "phosphorylation enrichment"
result_value = 0.518

[[record]]
seq_text = "FTYDPYSEEEP [IL2RB_Y387_D391E]"
assay_system = "EPHB1 (UniProt P54762)"
readout = "phosphorylation enrichment"
result_value = 0.652

[[record]]
seq_text = "NVADHYGVFKP [ATP6V0D2_Y271_YF]"
assay_system = "EPHB1 (UniProt P54762)"
readout = "phosphorylation enrichment"
result_value = 0.3

[[record]]
seq_text = "AHAGEHGAEAL [HBA1_Y25_Y25H]"
assay_system = "EPHB1 (UniProt P54762)"
readout = "phosphorylation enrichment"
result_value = 0.378


Any idea what phosphorylation enrichment was measured for WKKKIYEESST [MOCS2_Y170_E168K] ?
0.393

If you can, please state the reported phosphorylation enrichment value of LQTFRYHGLSM [PDHA1_Y289_H292L_YF] .
1.05

Look at this sequence and give its reported phosphorylation enrichment. FIGRIYLFLTK [GARS1_Y414_YF]
0.83

I'd like to know its phosphorylation enrichment. The sequence in question is NHFKIYNLFAE [PTEN_Y68_C71Y_YF]
0.931

Look up phosphorylation enrichment for this sequence: ISDNACQFMLT [MYH7_Y162_Y162C_YF]
0.712

Endpoint output: phosphorylation enrichment of TNRSFYFKPSL [NUP153_Y382_V381F] . Value?
0.646

phosphorylation enrichment lookup needed for LGPDGYSTVDR [ARVCF_Y901] , thanks.
0.318

Value lookup for phosphorylation enrichment; key = AGTILSHAHLD [ASS1_Y291_Y291S]
0.788
